Tested on: rhIFNγ stimulated STAT-3 phosphorylation in the A549 human epithelial cell line
Assay Procedure: A549 Cell Assay: Inhibition of pSTAT3
Assay type: cell-based
Test Conditions: Homo sapiens, A549 cells
pIC50: −log10 of the molar value.
Measured Property: pIC50

[1] CN(c1ccccc1CNc1nc(-c2cc(F)c(O)cc2CC(F)(F)F)nc2[nH]nc(-c3nnc(C4CCN(C(=O)CN5CCCC5)CC4)[nH]3)c12)S(C)(=O)=O
[2] CNC(=O)c1n[nH]c2nc(-c3cc(F)c(O)cc3CC(F)(F)F)nc(NCc3ccccc3N(CCO)S(C)(=O)=O)c12
For 1 and 2 , which recorded pIC50 is lower? Answer = label.
1
(1: 4.88, 2: 5.47)

###

Observed IC50 values for JAK1 (Homo sapiens (Human)) are listed in what follows.
Counter-ions that a name gives are not always drawn.
Measured Property: IC50 (nM)

Reference set (3 entries):
// lookup IC50 for CCc1cc(O)ccc1-c1cc2[nH]ncc2c(N2CCc3ccc(S(=O)(=O)NCCN4CCCC4)cc3C2)n1 [Example 116, formate]
3.8

// lookup IC50 for CN(c1ccccc1CNc1nc(-c2cc(F)c(O)cc2CC(F)(F)F)nc2[nH]nc(C(N)=O)c12)S(C)(=O)=O [Example 98]
4.9

// lookup IC50 for CCc1cc(O)c(F)cc1-c1nc(NCc2ccccc2N(C)S(C)(=O)=O)c2cn[nH]c2n1 [Example 155, hydrochloride]
1.2

[1] CC(C)CNc1nc(-c2cc(F)c(O)cc2CC(F)(F)F)nc2[nH]ncc12 [Example 153]
[2] CCN(c1ccccc1CNc1nc(-c2cc(F)c(O)cc2CC(F)(F)F)nc2[nH]nc(C(=O)NC)c12)S(C)(=O)=O [Example 103]
[3] CCN(c1ccc(C)cc1CNc1nc(-c2cc(F)c(O)cc2CC(F)(F)F)cc2[nH]nc(C(N)=O)c12)S(C)(=O)=O [Example 91]
Hey, quick one: sort these by IC50, largest value first please. When ranking, write the labels in the order the request describes.
1, 3, 2
(1: 74 nM, 3: 28.7 nM, 2: 5 nM)

###

Assay Target: JAK3 (Homo sapiens (Human))
Sequence (P52333 whole entry, species assumed): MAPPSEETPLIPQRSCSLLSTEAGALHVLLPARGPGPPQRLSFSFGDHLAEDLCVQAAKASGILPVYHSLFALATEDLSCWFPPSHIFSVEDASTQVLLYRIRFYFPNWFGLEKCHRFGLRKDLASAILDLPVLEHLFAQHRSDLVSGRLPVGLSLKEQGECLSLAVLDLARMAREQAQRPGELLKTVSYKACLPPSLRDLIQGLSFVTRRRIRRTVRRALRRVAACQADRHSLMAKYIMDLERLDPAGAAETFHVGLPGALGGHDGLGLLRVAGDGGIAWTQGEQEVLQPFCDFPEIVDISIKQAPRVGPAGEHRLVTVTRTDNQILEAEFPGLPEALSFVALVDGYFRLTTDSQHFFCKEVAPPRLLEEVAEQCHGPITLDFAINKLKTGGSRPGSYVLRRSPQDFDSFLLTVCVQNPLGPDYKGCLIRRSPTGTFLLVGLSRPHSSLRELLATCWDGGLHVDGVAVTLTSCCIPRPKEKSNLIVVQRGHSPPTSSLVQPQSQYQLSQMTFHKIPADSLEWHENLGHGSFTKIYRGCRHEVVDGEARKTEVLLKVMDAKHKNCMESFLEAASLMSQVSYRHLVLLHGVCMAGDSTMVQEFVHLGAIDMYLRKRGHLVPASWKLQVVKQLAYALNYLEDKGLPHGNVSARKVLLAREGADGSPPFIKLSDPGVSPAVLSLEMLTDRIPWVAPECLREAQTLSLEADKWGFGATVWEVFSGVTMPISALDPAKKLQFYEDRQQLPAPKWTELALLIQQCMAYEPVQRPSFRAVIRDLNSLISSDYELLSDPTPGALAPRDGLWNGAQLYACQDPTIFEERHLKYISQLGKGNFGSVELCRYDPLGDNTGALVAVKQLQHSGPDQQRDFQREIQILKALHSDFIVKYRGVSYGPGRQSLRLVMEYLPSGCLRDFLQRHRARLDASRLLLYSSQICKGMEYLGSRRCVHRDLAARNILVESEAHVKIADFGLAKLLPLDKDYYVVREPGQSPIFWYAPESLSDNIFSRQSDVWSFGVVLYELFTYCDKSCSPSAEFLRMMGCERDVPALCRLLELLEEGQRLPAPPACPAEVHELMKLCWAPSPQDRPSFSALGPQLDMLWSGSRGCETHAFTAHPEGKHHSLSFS
pIC50: −log10 of the molar value. Counter-ions that a name gives are not always drawn.
Measured Property: pIC50

Reference set (2 entries):
Look up pIC50 with JAK3 (Homo sapiens (Human)) for this molecule: CCc1cc(O)c(F)cc1-c1cc2[nH]ncc2c(NCc2ccccc2N(C)S(C)(=O)=O)n1
7.99

Look up pIC50 with JAK3 (Homo sapiens (Human)) for this molecule: CCc1cc(O)c(F)cc1-c1cc2[nH]nc(C(=O)NC)c2c(NCc2ccccc2N(C)S(C)(=O)=O)n1
7.51

[A] CCc1cc(O)ccc1-c1cc2[nH]ncc2c(N2CCc3ccc(S(=O)(=O)NCCN4CCCC4)cc3C2)n1 [Example 116, formate]
[B] CN(c1ccc(O)cc1CNc1nc(-c2cc(F)c(O)cc2CC(F)(F)F)cc2[nH]nc(C(N)=O)c12)S(=O)(=O)c1ccccc1
[C] CCc1cc(O)ccc1-c1cc2[nH]ncc2c(N2CCc3c(cccc3NS(C)(=O)=O)C2)n1 [Example 123, formate]
[D] CCc1cc(O)c(F)cc1-c1cc2[nH]nc(C(=O)NC)c2c(NCc2ccccc2N(CC)S(=O)(=O)CC)n1
[E] CCc1cc(O)c(F)cc1-c1cc2[nH]ncc2c(N(CCc2ccc(OC)c(OC)c2)Cc2ccccc2N(C)S(C)(=O)=O)n1 [Example 129, hydrochloride]
Hey, quick one: sort these by pIC50, largest value first please. When ranking, write the labels in the order the request describes.
C, A, D, E, B
(C: 8.02, A: 7.63, D: 7.07, E: 6.74, B: 6.27)

Taken from patent US9518052B2.
